System: HT29 colon
experimentalDetails: NCI tumour cell line growth inhibition, 48 h
assayReadout: TGI

molecule: O=c1oc2ccc(Cl)cc2c(=O)n1-c1ccc(Cl)cc1F
assayReadout: TGI
experimentalValue: > 33.5 µM

molecule: COc1ccc2[nH]c3c4c(c5cc(C(C)(C)C)ccc5c3c2c1)C(=O)N(c1ccccc1)C4=O
assayReadout: TGI
experimentalValue: > 100 µM

molecule: Cc1cc(S(=O)(=O)Nc2nc(N)n(-c3cnc4ccccc4n3)n2)c(S)cc1Cl
assayReadout: TGI
experimentalValue: > 100 µM

molecule: O=c1c2cccnc2[nH]c2ccc3scnc3c12
assayReadout: TGI
experimentalValue: > 10 µM

molecule: CON(C)C(=O)C(Cc1ccccc1)NC(=O)OC(C)(C)C (stereo unspecified)
assayReadout: TGI
experimentalValue: > 100 µM

molecule: COc1ccc(C(=O)/C=C/c2cc3ccccc3[nH]c2=O)cc1
assayReadout: TGI
experimentalValue: > 80.5 µM

molecule: COC(=O)c1cccc(NC(=O)Nc2ccc3oc(=O)c4ccccc4c3c2)c1
assayReadout: TGI
experimentalValue: > 100 µM

molecule: COC(=O)c1cc(NC2OCC(OC(C)=O)C(OC(C)=O)C2OC(C)=O)nc(SC)c1C(=O)OC (stereo unspecified)
assayReadout: TGI
experimentalValue: > 100 µM

molecule: COC(=O)c1cc(Br)c(C(=O)C(Cl)(Cl)Cl)[nH]1
assayReadout: TGI
experimentalValue: > 100 µM

molecule: c1ccc(N/N=C2\CC(c3ccccc3)Oc3ccccc32)cc1 (stereo unspecified)
assayReadout: TGI
experimentalValue: > 100 µM

molecule: CSc1ccc(-c2cn3ccsc3n2)c(O)c1
assayReadout: TGI
experimentalValue: > 100 µM

###

Tested on: MDA-MB-435
GI50 for assorted molecules

molecule: CCC1CCc2nc3sc(C(=O)Nc4ccccc4F)c(N)c3cc2C1 (stereo not given)
GI50: 133 nM

molecule: C[C@H]1CCC/C=C/[C@@H]2C[C@H](O)C[C@H]2[C@H](O)[C@H](S(=O)c2ccc(O)cc2)CC(=O)O1 (stereo not given in full)
GI50: 41.7 nM

molecule: O=c1ncc(-c2ccc(C(F)(F)F)cc2)c(NC2CCCCCC2)[nH]1
GI50: 15600 nM

molecule: Nc1ncc(-c2cnn(C3CCNCC3)c2)cc1-c1nc2ccccc2o1
GI50: 1210 nM

molecule: CN(C)CC/C=C1\c2ccccc2Sc2ccc(Cl)cc21
GI50: 1770 nM

molecule: O=S(=O)(/C=C/C=C/S(=O)(=O)c1ccccc1)c1ccccc1
GI50: 1040 nM

molecule: CS(=O)(=O)CCNCc1ccc(-c2ccc3ncnc(Nc4ccc(OCc5ccccc5)c(C(F)(F)F)c4)c3c2)o1
GI50: 4800 nM

molecule: CN1CCN(C(=O)c2ccc(NC(=O)Nc3ccc(N(C)c4ccnc(Nc5ccc(CS(C)(=O)=O)cc5)n4)cc3)cc2)CC1
GI50: > 25000 nM

molecule: O=C1C2CC3C(CC2C(=O)[N]1[Sn]([c]1ccccc1)([c]1ccccc1)[c]1ccccc1)C1(Cl)C(Cl)=C(Cl)C3(Cl)C1(Cl)Cl (stereo not given)
GI50: 87.2 nM

molecule: CC(=O)O[C@H]1CC[C@H]2[C@@H]3CCc4cc(O)c(I)cc4[C@H]3CC[C@]12C
GI50: 13100 nM

molecule: COc1cccc(-c2nn(-c3ccccc3)cc2-c2ccnc(NCCNS(=O)(=O)c3ccc(C(F)(F)F)cc3)c2)c1
GI50: 3230 nM

molecule: COc1cc(N2CCC(N3CCN(C)CC3)CC2)ccc1Nc1ncc(Cl)c(Nc2ccccc2P(C)(C)=O)n1
GI50: 2940 nM

molecule: O=C1C=C(Nc2ccccc2)c2ncccc2C1=O
GI50: 178 nM

molecule: C#C[C@@]1(O)[C@@H](CO)O[C@@H](n2cc(Cl)c3c(N)ncnc32)[C@@H]1O
GI50: 166 nM

molecule: COc1cc2c(c(OC)c1OC)-c1ccc(OC)c(=O)cc1[C@@H](NC(=O)CCl)CC2
GI50: < 10 nM

###

System: MALME-3M melanoma
experimentalDetails: NCI tumour cell line growth inhibition, 48 h

molecule: N#Cc1c(C#N)c(-c2cccc([N+](=O)[O-])c2)n(-c2ccccc2)c1N
TGI: > 100 µM
//
molecule: CC[C@H](C)c1occ2c(O)c(C(=O)O)c(=O)cc-2c1C
TGI: 37.7 µM
//
molecule: NCCCNc1ccc2c(c1)[n+]([O-])c1ccccc1[n+]2[O-]
TGI: 46.6 µM
//
molecule: C=C(C)C1CC=C(C(=O)O)CC1 (stereo not drawn)
TGI: 1630 µM
//
molecule: CC(=O)C1(c2ccccc2)CCN(Cn2sc3nc(C)cc(C)c3c2=O)CC1
TGI: 41.5 µM
//
molecule: O=c1c2cccnc2[nH]c2ccc3scnc3c12
TGI: > 10 µM
//
molecule: CCCCCCCC[N+](C)(C)Cc1ccc(C[N+](C)(C)CCCCCCCC)cc1
TGI: > 100 µM
//
molecule: C#C[C@@]1(O)[C@@H](CO)O[C@@H](n2cc(Cl)c3c(N)ncnc32)[C@@H]1O
TGI: 3.18 µM
//
molecule: CN1CCN(C(=O)c2ccc(NC(=O)Nc3ccc(N(C)c4ccnc(Nc5ccc(CS(C)(=O)=O)cc5)n4)cc3)cc2)CC1
TGI: > 25 µM
//
molecule: CC(=O)O[C@H](C[C@H](C(C)C)N(C)C(=O)[C@@H](NC(=O)[C@H]1CCCCN1C)C(C)C)c1nc(C(=O)N[C@@H](Cc2ccccc2)C[C@H](C)C(=O)O)c(C)s1
TGI: > 25 µM
//
molecule: CCC[CH2][Sn]1([CH2]CCC)[O]C(c2ccccn2)S(=O)(=O)[O]1 (stereo not drawn)
TGI: 3.27 µM
//
molecule: COC(=O)[C@H](CCSC)NC(=O)c1ccc(CNC(=O)/C=C/c2cccc(Oc3ccccc3)c2)cc1
TGI: 37.8 µM
//
molecule: Cc1nc(NC(=S)NC(=O)c2ccc(Cl)c(Cl)c2)sc1C(=O)/C=C/c1ccccc1[N+](=O)[O-]
TGI: 41.9 µM
//
molecule: Cc1cc(N(CCC#N)CCC#N)ccc1/C=C1/CN(N2C(=O)/C(=C/c3ccc(N(CCC#N)CCC#N)cc3C)N=C2c2ccccc2)C(c2ccccc2)=N1
TGI: > 100 µM
//
molecule: COC(=O)c1cc(C#N)[nH]c1-c1ccsc1
TGI: > 100 µM
//
molecule: CC(C)(C)CN1[C@@H]2CCCC[C@H]2N(CC(C)(C)C)P1(=O)Cc1ccccc1
TGI: 26.3 µM
//
molecule: O=C1CC2[C@@H](N3CCCC3)CCC(N1Cc1ccccc1)C2(O)O (stereo partly drawn)
TGI: > 100 µM
//
molecule: COc1cc(N2CCC(N3CCN(C)CC3)CC2)ccc1Nc1ncc(Cl)c(Nc2ccccc2P(C)(C)=O)n1
TGI: > 100 µM
//
molecule: CO/C(=N/N1CC1C(F)(F)F)c1ccncc1 (stereo not drawn)
TGI: > 100 µM
//
molecule: CS(=O)(=O)c1ccc(N/N=C/c2c(-c3ccc(S(C)(=O)=O)cc3)[nH]c3ccc(F)cc23)cc1
TGI: 4.38 µM
//
molecule: Cc1ccc(SCC(OCn2cnc3c(N)ncnc32)[C@H](C)F)cc1 (stereo partly drawn)
TGI: > 100 µM
//
molecule: Cc1ccc2c(c1)C(=O)/C(=C1/CCc3ccc(C)cc31)C2
TGI: > 100 µM
//
molecule: [N-]=[N+]=NC1(N=[N+]=[N-])C(=O)NN=C(c2ccccc2)C1=O (stereo not drawn)
TGI: > 100 µM
//
molecule: c1ccc(N/N=C2\CC(c3ccccc3)Oc3ccccc32)cc1 (stereo not drawn)
TGI: > 100 µM
//
molecule: C[C@]12CCC3c4ccc(OC(=O)c5ccccc5)cc4CC[C@H]3C1CC[C@@H]2OC(=O)C12OC1CCC2=O (stereo partly drawn)
TGI: 13.3 µM
//
molecule: CNC(=O)Nc1cc2c3c(c1)CCCN3CCC2
TGI: > 10 µM
//
molecule: O=C(Sc1c(-c2ccccc2)c(=O)n(-c2ccccc2)c(=S)n1-c1ccccc1)c1ccc(Cl)cc1
TGI: > 100 µM
//
molecule: Nc1ccccc1NC(=O)c1ccc(CSc2nc(N3CCOCC3)c3cccn3n2)cc1
TGI: > 100 µM
//
molecule: COC(C)(C)C(O)C(O)C[C@H](C)C1CC=C2C1(C)CCC1[C@@]3(C)CCC(OC(C)=O)C(C)(C)C3CC(OC3OC(COC(C)=O)C(O)C(O)C3O)[C@@]21C (stereo partly drawn)
TGI: > 10 µM
//
molecule: CCOC(=O)CSc1nc2ccccc2c(=O)n1N
TGI: > 100 µM
//
molecule: CCOC(=O)Cc1ccc(Nc2nc3cc(C(F)(F)F)ccc3nc2C(=O)OCC)cc1
TGI: > 100 µM
//
molecule: CN(C(=O)OC(C)(C)C)[C@H]1CCCC[C@H]1N1CCCC1
TGI: > 100 µM
//
molecule: O=[N+]([O-])C(/C(Cl)=C(/Cl)N1CCCCC1)=C1\NCCO1
TGI: > 100 µM
//
molecule: Cc1[nH]c2c(C)ccc(C)c2c1CC(=O)O
TGI: > 100 µM
//
molecule: CCSC(=Nc1ccccc1)SC
TGI: > 100 µM
//
molecule: CCOC(=O)Cn1c(=O)c2nc(SC)sc2n(-c2ccc(C)cc2)c1=S
TGI: > 92 µM
//
molecule: COc1cc2c(c(OC)c1OC)-c1ccc([O-])c(=O)cc1[C@@H](NC(C)=O)CC2.COc1cc2c(c(OC)c1OC)-c1ccc([O-])c(=O)cc1[C@@H](NC(C)=O)CC2.[Cu+2]
TGI: > 100 µM
//
molecule: CCc1ccccc1NC(=O)/C(CC(=O)c1c(C)n([O-])c2ccccc2[n+]1=O)=N\NS(=O)(=O)c1ccc(C)cc1
TGI: > 100 µM

// provenance: PubChem BioAssay (NCI)
